- Experimental Target: Human plasma kallikrein (Homo sapiens)
- Construct: yields a heavy chain (371 amino acids) and a light chain (248 amino acids)
- Assay Procedure: Plasma Kallikrein Assay
- Experimental Setup: purified Human plasma kallikrein 0.5 nM, substrate Acetyl-K-P-R-AFC; read-out: PKal IC50
Each record is given Criterion met if its reported IC50 is strictly below 10 nM. Records at or above 10 nM are given Criterion not met.

Here's what some known entries look like.
{"columns": ["Compound", "Label Class"],
 "data": [
  ["O=C1Nc2ccc(Cl)c(F)c2[C@@]2(CCCN(C(=O)c3nnc(C(CC(F)(F)F)c4ccccc4)[nH]3)C2)O1 (single isomer, unassigned) [Example 98]", "Criterion met"],
  ["CCC(c1ccc(F)cc1)n1cc(C(=O)N2CCC[C@@]3(C2)OC(=O)Nc2ccc(Cl)c(F)c23)cn1 (single isomer, unassigned) [Example 25]", "Criterion not met"],
  ["C[C@H](c1cccc(Cl)c1)n1cc(C(=O)N2CCC[C@@]3(C2)OC(=O)Nc2ccc(Cl)c(F)c23)cn1 (single isomer, unassigned) [Example 28]", "Criterion not met"],
  ["CCC(c1ccc2[nH]ncc2c1)n1cc(C(=O)N2CCC[C@@]3(C2)OC(=O)Nc2ccc(Cl)c(F)c23)cn1 (single isomer, unassigned) [Example 39]", "Criterion met"],
  ["CC1(C)CN(C(=O)c2nnc(C(C)(C)c3ccccc3)[nH]2)C[C@]2(C1)OC(=O)Nc1ccc(Cl)c(F)c12 [Example 95]", "Criterion not met"],
  ["O=C1Nc2ccc(Cl)c(F)c2[C@@]2(CCCN(C(=O)c3nnc(Cc4cc(F)cc(F)c4)[nH]3)C2)O1 [Example 120]", "Criterion not met"],
  ["NS(=O)(=O)c1cccc(Cn2cc(C(=O)N3CCC[C@@]4(C3)OC(=O)Nc3ccc(Cl)c(F)c34)cn2)c1 [Example 62]", "Criterion not met"],
  ["O=C1Nc2ccc(Cl)c(F)c2[C@@]2(CCCN(C(=O)c3nnc(C(CC(F)(F)F)c4cccc(Cl)c4)[nH]3)C2)O1 (single isomer, unassigned) [Example 100]", "Criterion met"]
]}

Input line: Field: below-cutoff. Rule: recorded IC50 strictly less than 10 nM. Subject: O=C1Nc2ccc(Cl)c(F)c2[C@@]2(CCCN(C(=O)c3nnc(Cc4ccc5c(c4)CCO5)[nH]3)C2)O1 [Example 117]
Output line: Criterion not met

----------
Item-by-item account of pIC50
- Experimental Target: Human plasma kallikrein (Homo sapiens, UniProt P03952)
- Construct: yields a heavy chain (371 amino acids) and a light chain (248 amino acids); purchased Enzyme Research Laboratories
- Sequence (P03952 391-638 limits assumed): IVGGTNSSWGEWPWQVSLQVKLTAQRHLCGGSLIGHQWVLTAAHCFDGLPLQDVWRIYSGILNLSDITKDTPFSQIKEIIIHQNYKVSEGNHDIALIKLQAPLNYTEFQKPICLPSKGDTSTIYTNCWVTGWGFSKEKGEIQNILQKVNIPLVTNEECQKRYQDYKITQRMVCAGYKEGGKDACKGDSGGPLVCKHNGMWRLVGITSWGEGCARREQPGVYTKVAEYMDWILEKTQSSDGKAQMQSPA
- Sequence (P03952 20-390 partner limits assumed): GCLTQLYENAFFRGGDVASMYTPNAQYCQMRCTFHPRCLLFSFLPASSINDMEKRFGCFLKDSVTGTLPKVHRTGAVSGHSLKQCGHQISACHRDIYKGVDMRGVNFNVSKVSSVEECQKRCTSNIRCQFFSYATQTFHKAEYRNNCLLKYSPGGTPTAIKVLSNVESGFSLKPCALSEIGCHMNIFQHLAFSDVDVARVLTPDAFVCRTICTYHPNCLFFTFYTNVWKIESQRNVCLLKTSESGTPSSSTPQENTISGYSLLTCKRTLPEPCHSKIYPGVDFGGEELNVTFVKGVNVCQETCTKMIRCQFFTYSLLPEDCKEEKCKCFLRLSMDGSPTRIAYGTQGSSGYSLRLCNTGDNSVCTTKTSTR
- Assay Procedure: Plasma Kallikrein Assay
- Type: biochemical
- Experimental Setup: purified Human plasma kallikrein 0.5 nM, substrate Acetyl-K-P-R-AFC; read-out: PKal IC50
// field semantics: pIC50 = negative decimal log of concentration (mol/L)

Previously resolved entries follow.
{"columns": ["Compound", "pIC50"],
 "data": [
  ["O=C1Nc2ccc(Cl)c(F)c2[C@@]2(CCCN(C(=O)c3nnc(C(Cc4ccccc4)c4ccccc4)[nH]3)C2)O1 (single isomer, unassigned) [Example 105]", 7.76],
  ["O=C1Nc2ccc(Cl)c(F)c2[C@@]2(CCCN(C(=O)C3(F)CCN(Cc4ccccc4)C3)C2)O1 (single isomer, unassigned) [Example 131]", 8.03],
  ["CCC(c1ccc(F)cc1)n1cc(C(=O)N2CCC[C@@]3(C2)OC(=O)Nc2ccc(Cl)c(F)c23)cn1 (single isomer, unassigned) [Example 26]", 8.16],
  ["O=C1Nc2ccc(Cl)c(F)c2[C@@]2(CCCN(C(=O)c3cnn(Cc4cccc(C(F)(F)F)c4)c3)C2)O1 [Example 5]", 7.64],
  ["O=C1Nc2ccc(Cl)c(F)c2[C@@]2(CCCN(C(=O)c3cnc([C@@H](O)c4ccc(F)cc4)[nH]3)C2)O1 [Example 77]", 7.25],
  ["CCC(c1ccc(F)cc1)c1c[nH]c(C(=O)N2CCC[C@@]3(C2)OC(=O)Nc2ccc(Cl)c(F)c23)n1 (stereo partly shown) [Example 70]", 8.24],
  ["O=C1Nc2ccc(Cl)c(F)c2[C@@]2(CCCN(C(=O)c3nnc(C4(c5ccc(F)cc5)CCOCC4)[nH]3)C2)O1 [Example 94]", 8.25],
  ["O=C1Nc2ccc(Cl)c(F)c2[C@@]2(CCCN(C(=O)c3cnn(Cc4ccc5c(c4)CC(CO)O5)c3)C2)O1 (stereo partly shown) [Example 58]", 7.97],
  ["CC[C@@H](c1cc(C)c2nc[nH]c2c1)c1n[nH]c(C(=O)N2CCC[C@@]3(C2)OC(=O)Nc2ccc(Cl)c(F)c23)n1 [Example 109]", 8.89],
  ["O=C1Nc2ccc(Cl)c(F)c2[C@@]2(CCCN(C(=O)c3cnn([C@](CO)(CC4CC4)c4ccc(F)cc4)c3)C2)O1 [Example 34]", 7.88]
]}

// field: pIC50; key: O=C1Nc2ccc(Cl)c(F)c2[C@]2(CCN(C(=O)c3cnn(Cc4ccc(Cn5ccccc5=O)cn4)c3)C2)O1 [Example 133] ; value = 7.82

// field: pIC50; key: CO[C@@H](C)[C@@H](c1ccccc1)n1cc(C(=O)N2CCC[C@@]3(C2)OC(=O)Nc2ccc(Cl)c(F)c23)cn1 [Example 11] ; value = 7.70

// field: pIC50; key: CCC(c1cc(C)c2nc[nH]c2c1)n1cc(C(=O)N2CCC[C@@]3(C2)OC(=O)Nc2ccc(Cl)c(F)c23)cn1 (single isomer, unassigned) [Example 46] ; value = 8.92

// field: pIC50; key: CCC(c1cccc(S(C)(=O)=O)c1)n1cc(C(=O)N2CCC[C@@]3(C2)OC(=O)Nc2ccc(Cl)c(F)c23)cn1 (single isomer, unassigned) [Example 30] ; value = 8.24

// field: pIC50; key: Cc1nc(Cn2cc(C(=O)N3CCC[C@@]4(C3)OC(=O)Nc3ccc(Cl)c(F)c34)cn2)sc1C [Example 18] ; value = 7.30

// field: pIC50; key: O=C1Nc2ccc(Cl)c(F)c2[C@@]2(CCCN(C(=O)c3nnc(C(Cc4ccccc4)c4ccccc4)[nH]3)C2)O1 (single isomer, unassigned) [Example 104] ; value = 7.78

// field: pIC50; key: O=C1Nc2ccc(Cl)c(F)c2[C@@]2(CCCN(C(=O)c3cnn(Cc4ccc(F)c(F)c4)c3)C2)O1 [Example 4] ; value = 7.70

// field: pIC50; key: Cn1cc(-c2ccc(Cc3nnc(C(=O)N4CCC[C@@]5(C4)OC(=O)Nc4ccc(Cl)c(F)c45)[nH]3)cc2)cn1 [Example 91] ; value = 7.60

----------
- Experimental Target: Human plasma kallikrein (Homo sapiens)
- Construct: yields a heavy chain (371 amino acids) and a light chain (248 amino acids)
- Assay Procedure: Plasma Kallikrein Assay
- Experimental Setup: purified Human plasma kallikrein 0.5 nM, substrate Acetyl-K-P-R-AFC; read-out: PKal IC50
Each record is given label 1 if its reported IC50 is strictly below 8 nM. Records at or above 8 nM are given label 0.

Here's what some known entries look like.
{"columns": ["Compound", "Label Class"],
 "data": [
  ["COC1(CC(c2ccccc2)c2c[nH]c(C(=O)N3CCC[C@@]4(C3)OC(=O)Nc3ccc(Cl)c(F)c34)n2)CC1 (single isomer, unassigned) [Example 75]", "label 1"],
  ["CCC(c1ccc2c(c1)OCO2)n1cc(C(=O)N2CCC[C@@]3(C2)OC(=O)Nc2ccc(Cl)c(F)c23)cn1 (single isomer, unassigned) [Example 33]", "label 1"],
  ["C[C@@H](c1cccc(Cl)c1)n1cc(C(=O)N2CCC[C@@]3(C2)OC(=O)Nc2ccc(Cl)c(F)c23)cn1 [Example 27]", "label 0"],
  ["O=C1Nc2ccc(Cl)c(F)c2[C@@]2(CCCN(C(=O)c3cnn(Cc4ccnc(C(F)(F)F)c4)c3)C2)O1 [Example 7]", "label 0"],
  ["O=C1Nc2ccc(Cl)c(F)c2[C@@]2(CCCN(C(=O)c3cnn(Cc4cnc5ccccn45)c3)C2)O1 [Example 19]", "label 0"]
]}

Input line: Field: below-cutoff. Rule: recorded IC50 strictly less than 8 nM. Subject: O=C1Nc2ccc(Cl)c(F)c2[C@@]2(CCCN(C(=O)c3cnn([C@H](CC4CC4)c4ccccc4)c3)C2)O1 (single isomer, unassigned) [Example 2]
Output line: label 1

Input line: Field: below-cutoff. Rule: recorded IC50 strictly less than 8 nM. Subject: O=C1Nc2ccc(Cl)c(F)c2[C@@]2(CCCN(C(=O)c3cnc(Cc4ccc(F)cc4)[nH]3)C2)O1 [Example 76]
Output line: label 0

Input line: Field: below-cutoff. Rule: recorded IC50 strictly less than 8 nM. Subject: O=C(O)COc1ccc(Cn2cc(C(=O)N3CCC[C@@]4(C3)OC(=O)Nc3ccc(Cl)c(F)c34)cn2)cc1 [Example 52]
Output line: label 0

Input line: Field: below-cutoff. Rule: recorded IC50 strictly less than 8 nM. Subject: CCC(c1c(C)noc1C)n1cc(C(=O)N2CCC[C@@]3(C2)OC(=O)Nc2ccc(Cl)c(F)c23)cn1 (single isomer, unassigned) [Example 43]
Output line: label 0

Input line: Field: below-cutoff. Rule: recorded IC50 strictly less than 8 nM. Subject: CC(C)(c1ccccc1)c1nnc(C(=O)N2CCC[C@@]3(C2)OC(=O)Nc2ccc(Cl)c(F)c23)[nH]1 [Example 93]
Output line: label 0

Input line: Field: below-cutoff. Rule: recorded IC50 strictly less than 8 nM. Subject: O=C1Nc2ccc(Cl)c(F)c2[C@]2(CCN(C(=O)c3cn(Cc4ccc(Cn5ccccc5=O)cc4)nc3C(F)(F)F)C2)O1 [Example 135]
Output line: label 1

Input line: Field: below-cutoff. Rule: recorded IC50 strictly less than 8 nM. Subject: CS(=O)(=O)c1cccc(Cn2cc(C(=O)N3CCC[C@@]4(C3)OC(=O)Nc3ccc(Cl)c(F)c34)cn2)c1 [Example 63]
Output line: label 0

Input line: Field: below-cutoff. Rule: recorded IC50 strictly less than 8 nM. Subject: CCC(c1ccc2cnccc2c1)n1cc(C(=O)N2CCC[C@@]3(C2)OC(=O)Nc2ccc(Cl)c(F)c23)cn1 (single isomer, unassigned) [Example 36]
Output line: label 1
